# Test system: 935938-334-R-J1-PDC spheroids with HUVEC/MSC, viability
# protocol: Anticancer human tumor 935938-334-R-J1-PDC patient-derived small intestine adenocarcinoma cell line growth inhibition [PI3K]
# experimental_parameters: second compound 3.16 µM; first compound 0.0316 µM; stronger effect = lower value
# Description: Combinatorial screen of targeted agents with the PI3K inhibitors inavolisib, alpelisib, duvelisib, and copanlisib in multi-cell type tumor spheroids A high-throughput screen of multi-cell type tumor spheroids was designed to identify active combinations of targeted small molecules and PI3K pathway inhibitors. […] Compounds. […] If the clinical Cmax for an agent had not been determined, the highest concentration tested was 10 microM. […]
Below, each of the compounds is paired with its reported viability, T/C value.
reported_metric: viability, T/C (%)

compound	reported_metric	numeric_readout
CC(=O)c1c(C)c2cnc(Nc3ccc(N4CCNCC4)cn3)nc2n(C2CCCC2)c1=O + CC(Nc1ncnc2nc[nH]c12)c1cc2cccc(Cl)c2c(=O)n1-c1ccccc1	viability, T/C	73.5
CC1(C)CCC(CN2CCN(c3ccc(C(=O)NS(=O)(=O)c4ccc(NCC5CCOCC5)c([N+](=O)[O-])c4)c(Oc4cnc5[nH]ccc5c4)c3)CC2)=C(c2ccc(Cl)cc2)C1 + Cc1nc(NC(=O)N2CCCC2C(N)=O)sc1-c1ccnc(C(C)(C)C(F)(F)F)c1	viability, T/C	52.3
CCCS(=O)(=O)Nc1ccc(F)c(C(=O)c2c[nH]c3ncc(-c4ccc(Cl)cc4)cc23)c1F + Cc1nc(NC(=O)N2CCCC2C(N)=O)sc1-c1ccnc(C(C)(C)C(F)(F)F)c1	viability, T/C	63.1
C[C@@H](NC(=O)c1ncnc(N)c1Cl)c1ncc(C(=O)Nc2cc(C(F)(F)F)c(Cl)cn2)s1 + Cc1nc(NC(=O)N2CCCC2C(N)=O)sc1-c1ccnc(C(C)(C)C(F)(F)F)c1	viability, T/C	53.6
CNC(=O)c1ccc(N2C(=S)N(c3ccc(C#N)c(C(F)(F)F)c3)C(=O)C2(C)C)cc1F + Cc1nc(NC(=O)N2CCCC2C(N)=O)sc1-c1ccnc(C(C)(C)C(F)(F)F)c1	viability, T/C	39.6
Cn1nccc1Nc1nccc(-c2ccn(C(CO)c3ccc(Cl)c(F)c3)c(=O)c2)n1 (stereo unspecified) + Cc1nc(NC(=O)N2CCCC2C(N)=O)sc1-c1ccnc(C(C)(C)C(F)(F)F)c1	viability, T/C	50.6
C[C@@H](NC(=O)c1ncnc(N)c1Cl)c1ncc(C(=O)Nc2cc(C(F)(F)F)c(Cl)cn2)s1 + CC(Nc1ncnc2nc[nH]c12)c1cc2cccc(Cl)c2c(=O)n1-c1ccccc1	viability, T/C	91.8
CC(Cn1ccc(-c2ccc(C#N)c(Cl)c2)n1)NC(=O)c1cc(C(C)O)[nH]n1 (stereo unspecified) + Cc1nc(NC(=O)N2CCCC2C(N)=O)sc1-c1ccnc(C(C)(C)C(F)(F)F)c1	viability, T/C	62.7
CC1(C)CCC(Nc2ncc(C(F)(F)F)c(-c3c[nH]c4c(P(C)(C)=O)c(C#N)ccc34)n2)CN1 (stereo unspecified) + CC(Nc1ncnc2nc[nH]c12)c1cc2cccc(Cl)c2c(=O)n1-c1ccccc1	viability, T/C	30.8
CC(C)n1nc(-c2ccc3oc(N)nc3c2)c2c(N)ncnc21 + CC(Nc1ncnc2nc[nH]c12)c1cc2cccc(Cl)c2c(=O)n1-c1ccccc1	viability, T/C	57.6
Cn1ncc(Cl)c1-c1cc(C(=O)NC(CN)Cc2cccc(F)c2)sc1Cl (stereo unspecified) + Cc1nc(NC(=O)N2CCCC2C(N)=O)sc1-c1ccnc(C(C)(C)C(F)(F)F)c1	viability, T/C	53.5

---

# Tested on: 935938-334-R-J1-PDC spheroids with HUVEC/MSC, viability
# protocol: Anticancer human tumor 935938-334-R-J1-PDC cell line growth inhibition [PI3K];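 also: compound exposure lasted seven days before viability was read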
# experimental_parameters: curve of first compound; second compound 0.1 µM
Quick list: IC50 per entry.
reported_metric: IC50

compound	reported_metric	result
CC1(C)CCC(CN2CCN(c3ccc(C(=O)NS(=O)(=O)c4ccc(NCC5CCOCC5)c([N+](=O)[O-])c4)c(Oc4cnc5[nH]ccc5c4)c3)CC2)=C(c2ccc(Cl)cc2)C1 + CC(Nc1ccc2c(c1)OCCn1cc(N3C(=O)OCC3C(F)F)nc1-2)C(N)=O	IC50	6 µM
CCN1CCN(Cc2ccc(Nc3ncc(F)c(-c4cc(F)c5nc(C)n(C(C)C)c5c4)n3)nc2)CC1 + COc1c(OCCCN2CCOCC2)ccc2c3n(c(=NC(=O)c4cnc(N)nc4)nc12)CCN3	IC50	< 0.00316 µM
CC1(C)CCC(Nc2ncc(C(F)(F)F)c(-c3c[nH]c4c(P(C)(C)=O)c(C#N)ccc34)n2)CN1 (stereo not given) + CC(Nc1ncnc2nc[nH]c12)c1cc2cccc(Cl)c2c(=O)n1-c1ccccc1	IC50	< 0.0316 µM
C[C@@H](NC(=O)c1ncnc(N)c1Cl)c1ncc(C(=O)Nc2cc(C(F)(F)F)c(Cl)cn2)s1 + CC(Nc1ccc2c(c1)OCCn1cc(N3C(=O)OCC3C(F)F)nc1-2)C(N)=O	IC50	> 10 µM
CC1(C)CCC(CN2CCN(c3ccc(C(=O)NS(=O)(=O)c4ccc(NCC5CCOCC5)c([N+](=O)[O-])c4)c(Oc4cnc5[nH]ccc5c4)c3)CC2)=C(c2ccc(Cl)cc2)C1 + Cc1nc(NC(=O)N2CCCC2C(N)=O)sc1-c1ccnc(C(C)(C)C(F)(F)F)c1	IC50	7.42 µM

---

# Test system: 935938-334-R-J1-PDC spheroids with HUVEC/MSC, viability
# protocol: Anticancer human tumor 935938-334-R-J1-PDC cell line growth inhibition [PI3K];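 also: compound exposure lasted seven days before viability was read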
# experimental_parameters: curve of first compound; second compound 10 µM
Readings of IC50 for the listed compounds

compound	result_modifier	IC50, µM
C=CC(=O)N1CCN(c2nc(=O)n(-c3c(C)ccnc3C(C)C)c3nc(-c4c(O)cccc4F)c(F)cc23)C(C)C1 (stereo not given) + CC(Nc1ncnc2nc[nH]c12)c1cc2cccc(Cl)c2c(=O)n1-c1ccccc1	>	10
Cn1cnc2c(F)c(Nc3ccc(Br)cc3Cl)c(C(=O)NOCCO)cc21 + CC(Nc1ncnc2nc[nH]c12)c1cc2cccc(Cl)c2c(=O)n1-c1ccccc1	=	0.0515
CC(Cn1ccc(-c2ccc(C#N)c(Cl)c2)n1)NC(=O)c1cc(C(C)O)[nH]n1 (stereo not given) + Cc1nc(NC(=O)N2CCCC2C(N)=O)sc1-c1ccnc(C(C)(C)C(F)(F)F)c1	<	0.0316
CCCS(=O)(=O)Nc1ccc(F)c(C(=O)c2c[nH]c3ncc(-c4ccc(Cl)cc4)cc23)c1F + CC(Nc1ncnc2nc[nH]c12)c1cc2cccc(Cl)c2c(=O)n1-c1ccccc1	=	5.62
Cn1nccc1Nc1nccc(-c2ccn(C(CO)c3ccc(Cl)c(F)c3)c(=O)c2)n1 (stereo not given) + Cc1nc(NC(=O)N2CCCC2C(N)=O)sc1-c1ccnc(C(C)(C)C(F)(F)F)c1	<	0.0316

---

# System: 935938-334-R-J1-PDC spheroids with HUVEC/MSC, viability
# protocol: Anticancer human tumor 935938-334-R-J1-PDC cell line growth inhibition [PI3K];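 also: compound exposure lasted seven days before viability was read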;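 as to viability, T/C: percent of vehicle DMSO treated spheroid viability so 100% = untreated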
# experimental_parameters: second compound 0.1 µM; first compound 0.1 µM; stronger effect = lower value
Some molecules, each annotated with its measured viability, T/C.
reported_metric: viability, T/C

molecule	reported_metric	result
CC(Cn1ccc(-c2ccc(C#N)c(Cl)c2)n1)NC(=O)c1cc(C(C)O)[nH]n1 (stereo unspecified) + CC(Nc1ccc2c(c1)OCCn1cc(N3C(=O)OCC3C(F)F)nc1-2)C(N)=O	viability, T/C	60.9%
Cn1ncc(Cl)c1-c1cc(C(=O)NC(CN)Cc2cccc(F)c2)sc1Cl (stereo unspecified) + Cc1nc(NC(=O)N2CCCC2C(N)=O)sc1-c1ccnc(C(C)(C)C(F)(F)F)c1	viability, T/C	77.2%
CC(C)n1nc(-c2ccc3oc(N)nc3c2)c2c(N)ncnc21 + Cc1nc(NC(=O)N2CCCC2C(N)=O)sc1-c1ccnc(C(C)(C)C(F)(F)F)c1	viability, T/C	54.5%
Cn1nccc1Nc1nccc(-c2ccn(C(CO)c3ccc(Cl)c(F)c3)c(=O)c2)n1 (stereo unspecified) + CC(Nc1ccc2c(c1)OCCn1cc(N3C(=O)OCC3C(F)F)nc1-2)C(N)=O	viability, T/C	71.7%
CC1(C)CCC(Nc2ncc(C(F)(F)F)c(-c3c[nH]c4c(P(C)(C)=O)c(C#N)ccc34)n2)CN1 (stereo unspecified) + CC(Nc1ncnc2nc[nH]c12)c1cc2cccc(Cl)c2c(=O)n1-c1ccccc1	viability, T/C	36.5%
CC(C)NCC(C(=O)N1CCN(c2ncnc3c2C(C)CC3O)CC1)c1ccc(Cl)cc1 (stereo unspecified) + COc1c(OCCCN2CCOCC2)ccc2c3n(c(=NC(=O)c4cnc(N)nc4)nc12)CCN3	viability, T/C	49.4%
CC(C)NCC(C(=O)N1CCN(c2ncnc3c2C(C)CC3O)CC1)c1ccc(Cl)cc1 (stereo unspecified) + CC(Nc1ncnc2nc[nH]c12)c1cc2cccc(Cl)c2c(=O)n1-c1ccccc1	viability, T/C	69.4%
CC(=O)c1c(C)c2cnc(Nc3ccc(N4CCNCC4)cn3)nc2n(C2CCCC2)c1=O + CC(Nc1ccc2c(c1)OCCn1cc(N3C(=O)OCC3C(F)F)nc1-2)C(N)=O	viability, T/C	19.3%
CC1(C)CCC(CN2CCN(c3ccc(C(=O)NS(=O)(=O)c4ccc(NCC5CCOCC5)c([N+](=O)[O-])c4)c(Oc4cnc5[nH]ccc5c4)c3)CC2)=C(c2ccc(Cl)cc2)C1 + COc1c(OCCCN2CCOCC2)ccc2c3n(c(=NC(=O)c4cnc(N)nc4)nc12)CCN3	viability, T/C	44.7%
CC(=O)c1c(C)c2cnc(Nc3ccc(N4CCNCC4)cn3)nc2n(C2CCCC2)c1=O + CC(Nc1ncnc2nc[nH]c12)c1cc2cccc(Cl)c2c(=O)n1-c1ccccc1	viability, T/C	74.6%
C=CC(=O)N1CCN(c2nc(=O)n(-c3c(C)ccnc3C(C)C)c3nc(-c4c(O)cccc4F)c(F)cc23)C(C)C1 (stereo unspecified) + Cc1nc(NC(=O)N2CCCC2C(N)=O)sc1-c1ccnc(C(C)(C)C(F)(F)F)c1	viability, T/C	76.2%
CCCS(=O)(=O)Nc1ccc(F)c(C(=O)c2c[nH]c3ncc(-c4ccc(Cl)cc4)cc23)c1F + CC(Nc1ccc2c(c1)OCCn1cc(N3C(=O)OCC3C(F)F)nc1-2)C(N)=O	viability, T/C	78.1%
Cn1nccc1Nc1nccc(-c2ccn(C(CO)c3ccc(Cl)c(F)c3)c(=O)c2)n1 (stereo unspecified) + Cc1nc(NC(=O)N2CCCC2C(N)=O)sc1-c1ccnc(C(C)(C)C(F)(F)F)c1	viability, T/C	73.5%
CC1(C)CCC(Nc2ncc(C(F)(F)F)c(-c3c[nH]c4c(P(C)(C)=O)c(C#N)ccc34)n2)CN1 (stereo unspecified) + Cc1nc(NC(=O)N2CCCC2C(N)=O)sc1-c1ccnc(C(C)(C)C(F)(F)F)c1	viability, T/C	34.4%
CCN1CCN(Cc2ccc(Nc3ncc(F)c(-c4cc(F)c5nc(C)n(C(C)C)c5c4)n3)nc2)CC1 + CC(Nc1ccc2c(c1)OCCn1cc(N3C(=O)OCC3C(F)F)nc1-2)C(N)=O	viability, T/C	45.1%
Cn1ncc(Cl)c1-c1cc(C(=O)NC(CN)Cc2cccc(F)c2)sc1Cl (stereo unspecified) + CC(Nc1ncnc2nc[nH]c12)c1cc2cccc(Cl)c2c(=O)n1-c1ccccc1	viability, T/C	88.9%
CC1(C)CCC(Nc2ncc(C(F)(F)F)c(-c3c[nH]c4c(P(C)(C)=O)c(C#N)ccc34)n2)CN1 (stereo unspecified) + COc1c(OCCCN2CCOCC2)ccc2c3n(c(=NC(=O)c4cnc(N)nc4)nc12)CCN3	viability, T/C	22.9%
CC1(C)CCC(Nc2ncc(C(F)(F)F)c(-c3c[nH]c4c(P(C)(C)=O)c(C#N)ccc34)n2)CN1 (stereo unspecified) + CC(Nc1ccc2c(c1)OCCn1cc(N3C(=O)OCC3C(F)F)nc1-2)C(N)=O	viability, T/C	39.5%
C=CC(=O)N1CCN(c2nc(=O)n(-c3c(C)ccnc3C(C)C)c3nc(-c4c(O)cccc4F)c(F)cc23)C(C)C1 (stereo unspecified) + CC(Nc1ccc2c(c1)OCCn1cc(N3C(=O)OCC3C(F)F)nc1-2)C(N)=O	viability, T/C	84.4%
Cn1nccc1Nc1nccc(-c2ccn(C(CO)c3ccc(Cl)c(F)c3)c(=O)c2)n1 (stereo unspecified) + CC(Nc1ncnc2nc[nH]c12)c1cc2cccc(Cl)c2c(=O)n1-c1ccccc1	viability, T/C	91.1%
CCCS(=O)(=O)Nc1ccc(F)c(C(=O)c2c[nH]c3ncc(-c4ccc(Cl)cc4)cc23)c1F + COc1c(OCCCN2CCOCC2)ccc2c3n(c(=NC(=O)c4cnc(N)nc4)nc12)CCN3	viability, T/C	65.5%
